tested on: SW837; experiment: combination cScore with adagrasib (Bliss gap around IC50) (%PoC); higher = stronger additive effect
Quick list: combination cScore with adagrasib per entry.

>  <molecule>
CCS(=O)(=O)Nc1ccc2c(c1)/C(=C(/Nc1ccc(CN3CCCCC3)cc1)c1ccccc1)C(=O)N2 [Hesperadin] + C=C(F)C(=O)N1CCN(c2nc(OC[C@@H]3CCCN3C)nc3c2CCN(c2cccc4cccc(Cl)c24)C3)C[C@@H]1CC#N [adagrasib]

>  <combination cScore with adagrasib>
0.27

$$$$
>  <molecule>
CC[C@H](C)C(=O)O[C@H]1C[C@@H](C)C=C2C=C[C@H](C)[C@H](CC[C@@H]3C[C@@H](O)CC(=O)O3)[C@H]21 [Lovastatin] + C=C(F)C(=O)N1CCN(c2nc(OC[C@@H]3CCCN3C)nc3c2CCN(c2cccc4cccc(Cl)c24)C3)C[C@@H]1CC#N [adagrasib]

>  <combination cScore with adagrasib>
1.03

$$$$
>  <molecule>
Nc1ncn([C@@H]2O[C@H](CO)[C@@H](O)[C@H]2O)c(=O)n1 [Azacitidine] + C=C(F)C(=O)N1CCN(c2nc(OC[C@@H]3CCCN3C)nc3c2CCN(c2cccc4cccc(Cl)c24)C3)C[C@@H]1CC#N [adagrasib]

>  <combination cScore with adagrasib>
9.12

$$$$
>  <molecule>
Nc1cc(C(F)(F)F)c(-c2cc(N3CCOCC3)nc(N3CCOCC3)n2)cn1 [BKM120] + C=C(F)C(=O)N1CCN(c2nc(OC[C@@H]3CCCN3C)nc3c2CCN(c2cccc4cccc(Cl)c24)C3)C[C@@H]1CC#N [adagrasib]

>  <combination cScore with adagrasib>
9.24

$$$$
>  <molecule>
CS(=O)(=O)c1ccc(-c2cnc(N)c(C(=O)Nc3ccccc3)n2)cc1 [VE-821] + C=C(F)C(=O)N1CCN(c2nc(OC[C@@H]3CCCN3C)nc3c2CCN(c2cccc4cccc(Cl)c24)C3)C[C@@H]1CC#N [adagrasib]

>  <combination cScore with adagrasib>
12.8

$$$$
>  <molecule>
Cc1ccc(NC(=O)c2ccnc(C(F)(F)F)c2)cc1-c1cc(OCCO)nc(N2CCOCC2)c1 [LXH-254] + C=C(F)C(=O)N1CCN(c2nc(OC[C@@H]3CCCN3C)nc3c2CCN(c2cccc4cccc(Cl)c24)C3)C[C@@H]1CC#N [adagrasib]

>  <combination cScore with adagrasib>
0.67

$$$$
>  <molecule>
CC(C)(C)c1nc(-c2cccc(NS(=O)(=O)c3c(F)cccc3F)c2F)c(-c2ccnc(N)n2)s1 [Dabrafenib] + C=C(F)C(=O)N1CCN(c2nc(OC[C@@H]3CCCN3C)nc3c2CCN(c2cccc4cccc(Cl)c24)C3)C[C@@H]1CC#N [adagrasib]

>  <combination cScore with adagrasib>
-0.35

$$$$
>  <molecule>
Cc1cn(-c2cc(NC(=O)c3ccc(C)c(Nc4nccc(-c5cccnc5)n4)c3)cc(C(F)(F)F)c2)cn1 [Nilotinib] + C=C(F)C(=O)N1CCN(c2nc(OC[C@@H]3CCCN3C)nc3c2CCN(c2cccc4cccc(Cl)c24)C3)C[C@@H]1CC#N [adagrasib]

>  <combination cScore with adagrasib>
9.6

$$$$

* * *

system: NCI-H2122; assay: combination cScore with sotorasib (Bliss gap around IC50) (%PoC); higher = stronger additive effect
Quick list: combination cScore with sotorasib per entry.
parameter: combination cScore with sotorasib

>  <compound>
C[C@H](Cc1ccc(O)c(O)c1)[C@@H](C)Cc1ccc(O)c(O)c1 [Masoprocol] + C=CC(=O)N1CCN(c2nc(=O)n(-c3c(C)ccnc3C(C)C)c3nc(-c4c(O)cccc4F)c(F)cc23)[C@@H](C)C1

>  <target.under.test>
NCI-H2122

>  <parameter>
combination cScore with sotorasib

>  <reported.result>
-1.02

$$$$
>  <compound>
C[C@]12CC[C@@H]3c4ccc(O)cc4C[C@@H](CCCCCCCCC[S+]([O-])CCCC(F)(F)C(F)(F)F)[C@H]3[C@@H]1CC[C@@H]2O (stereo partly specified) [Fulvestrant] + C=CC(=O)N1CCN(c2nc(=O)n(-c3c(C)ccnc3C(C)C)c3nc(-c4c(O)cccc4F)c(F)cc23)[C@@H](C)C1

>  <target.under.test>
NCI-H2122

>  <parameter>
combination cScore with sotorasib

>  <reported.result>
8.41

$$$$
>  <compound>
O=C(O)C(=O)O.[NH-][C@@H]1CCCC[C@H]1[NH-].[Pt+2] [Oxaliplatin] + C=CC(=O)N1CCN(c2nc(=O)n(-c3c(C)ccnc3C(C)C)c3nc(-c4c(O)cccc4F)c(F)cc23)[C@@H](C)C1

>  <target.under.test>
NCI-H2122

>  <parameter>
combination cScore with sotorasib

>  <reported.result>
13.8

$$$$
>  <compound>
COc1cc2c(Oc3ccc4[nH]c(C)cc4c3F)ncnc2cc1OCCCN1CCCC1 [Cediranib] + C=CC(=O)N1CCN(c2nc(=O)n(-c3c(C)ccnc3C(C)C)c3nc(-c4c(O)cccc4F)c(F)cc23)[C@@H](C)C1

>  <target.under.test>
NCI-H2122

>  <parameter>
combination cScore with sotorasib

>  <reported.result>
0.01

$$$$
>  <compound>
Cc1ccc(C(=O)Nc2ccc(CN3CCN(C)CC3)c(C(F)(F)F)c2)cc1C#Cc1cnc2cccnn12 [Ponatinib] + C=CC(=O)N1CCN(c2nc(=O)n(-c3c(C)ccnc3C(C)C)c3nc(-c4c(O)cccc4F)c(F)cc23)[C@@H](C)C1

>  <target.under.test>
NCI-H2122

>  <parameter>
combination cScore with sotorasib

>  <reported.result>
19.1

$$$$
>  <compound>
CCC1=C[C@@H]2CN(C1)Cc1c([nH]c3ccccc13)[C@@](C(=O)OC)(c1cc3c(cc1OC)N(C)[C@H]1[C@@](O)(C(=O)OC)[C@H](OC(C)=O)[C@]4(CC)C=CCN5CC[C@]31[C@@H]54)C2 [Vinorelbine] + C=CC(=O)N1CCN(c2nc(=O)n(-c3c(C)ccnc3C(C)C)c3nc(-c4c(O)cccc4F)c(F)cc23)[C@@H](C)C1

>  <target.under.test>
NCI-H2122

>  <parameter>
combination cScore with sotorasib

>  <reported.result>
1.79

$$$$
>  <compound>
CNC(=O)c1cc(Oc2ccc(NC(=O)Nc3ccc(Cl)c(C(F)(F)F)c3)c(F)c2)ccn1 [Regorafenib] + C=CC(=O)N1CCN(c2nc(=O)n(-c3c(C)ccnc3C(C)C)c3nc(-c4c(O)cccc4F)c(F)cc23)[C@@H](C)C1

>  <target.under.test>
NCI-H2122

>  <parameter>
combination cScore with sotorasib

>  <reported.result>
7.32

$$$$
>  <compound>
O=P1(N(CCCl)CCCl)NCCCO1 (stereo unspecified) [Cyclophosphamide] + C=CC(=O)N1CCN(c2nc(=O)n(-c3c(C)ccnc3C(C)C)c3nc(-c4c(O)cccc4F)c(F)cc23)[C@@H](C)C1

>  <target.under.test>
NCI-H2122

>  <parameter>
combination cScore with sotorasib

>  <reported.result>
-0.02

$$$$
>  <compound>
O=C(O)CCCCC(CCSCc1ccccc1)SCc1ccccc1 (stereo unspecified) [CPI-613] + C=CC(=O)N1CCN(c2nc(=O)n(-c3c(C)ccnc3C(C)C)c3nc(-c4c(O)cccc4F)c(F)cc23)[C@@H](C)C1

>  <target.under.test>
NCI-H2122

>  <parameter>
combination cScore with sotorasib

>  <reported.result>
19

$$$$
>  <compound>
O=C(O)c1nn(Cc2ccc(Cl)cc2Cl)c2ccccc12 [Lonidamine] + C=CC(=O)N1CCN(c2nc(=O)n(-c3c(C)ccnc3C(C)C)c3nc(-c4c(O)cccc4F)c(F)cc23)[C@@H](C)C1

>  <target.under.test>
NCI-H2122

>  <parameter>
combination cScore with sotorasib

>  <reported.result>
-0.87

$$$$
>  <compound>
COc1cc(Nc2ncc3c(n2)-c2ccc(Cl)cc2C(c2c(F)cccc2OC)=NC3)ccc1C(=O)O [MLN8237] + C=CC(=O)N1CCN(c2nc(=O)n(-c3c(C)ccnc3C(C)C)c3nc(-c4c(O)cccc4F)c(F)cc23)[C@@H](C)C1

>  <target.under.test>
NCI-H2122

>  <parameter>
combination cScore with sotorasib

>  <reported.result>
-3.51

$$$$
>  <compound>
CN(NC(=O)CC(=O)NN(C)C(=S)c1ccccc1)C(=S)c1ccccc1 [Elesclomol] + C=CC(=O)N1CCN(c2nc(=O)n(-c3c(C)ccnc3C(C)C)c3nc(-c4c(O)cccc4F)c(F)cc23)[C@@H](C)C1

>  <target.under.test>
NCI-H2122

>  <parameter>
combination cScore with sotorasib

>  <reported.result>
13.6

$$$$
>  <compound>
CC(=O)[C@]1(O)Cc2c(O)c3c(c(O)c2[C@@H](O[C@H]2C[C@H](N)[C@H](O)[C@H](C)O2)C1)C(=O)c1ccccc1C3=O [Idarubicin] + C=CC(=O)N1CCN(c2nc(=O)n(-c3c(C)ccnc3C(C)C)c3nc(-c4c(O)cccc4F)c(F)cc23)[C@@H](C)C1

>  <target.under.test>
NCI-H2122

>  <parameter>
combination cScore with sotorasib

>  <reported.result>
8.08

$$$$
>  <compound>
COc1cc(CCc2cc(NC(=O)c3ccc(N4CC(C)NC(C)C4)cc3)n[nH]2)cc(OC)c1 (stereo unspecified) [AZD4547] + C=CC(=O)N1CCN(c2nc(=O)n(-c3c(C)ccnc3C(C)C)c3nc(-c4c(O)cccc4F)c(F)cc23)[C@@H](C)C1

>  <target.under.test>
NCI-H2122

>  <parameter>
combination cScore with sotorasib

>  <reported.result>
11.8

$$$$
>  <compound>
Oc1nc(-c2ccc(C(F)(F)F)cc2)nc2c1CSCC2 [XAV939] + C=CC(=O)N1CCN(c2nc(=O)n(-c3c(C)ccnc3C(C)C)c3nc(-c4c(O)cccc4F)c(F)cc23)[C@@H](C)C1

>  <target.under.test>
NCI-H2122

>  <parameter>
combination cScore with sotorasib

>  <reported.result>
14.2

$$$$
>  <compound>
COc1ccc2nc3ccc(OC)cc3c(SCCCN)c2c1 + C=CC(=O)N1CCN(c2nc(=O)n(-c3c(C)ccnc3C(C)C)c3nc(-c4c(O)cccc4F)c(F)cc23)[C@@H](C)C1

>  <target.under.test>
NCI-H2122

>  <parameter>
combination cScore with sotorasib

>  <reported.result>
11.5

$$$$

These data points were gathered from the supplement of paper PMC11424490.
